# Test system: PPARg:RXRa (NR concentration 180 nM, RXRa partner concentration 90 nM)
# experiment_description: PBM binding z-score (relative to random genomic background probes); higher = stronger binding; sequences stand for … in GC…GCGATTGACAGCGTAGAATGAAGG
The following sequences are listed with their measured PBM binding z-score values.

Example cases with answers are listed next.
entry_sequence | value_observed
CCGAGTAGGTTACGAGGGGGCGTTCAGTGCGAAT | 2
TCGAGTAGGTTACGGGGGGATTCAGGGATGAAGA | 5.11

Now look at this one.
// field: PBM binding z-score; key: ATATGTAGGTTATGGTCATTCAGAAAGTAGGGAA ; value = 4.98
